Value source: PubChem BioAssay AID504652

Each record here notes measured activity change, negative = inhibition.
Target: D(1A) dopamine receptor (Homo sapiens) (UniProt P21728)
Sequence (P21728 whole entry, looked up): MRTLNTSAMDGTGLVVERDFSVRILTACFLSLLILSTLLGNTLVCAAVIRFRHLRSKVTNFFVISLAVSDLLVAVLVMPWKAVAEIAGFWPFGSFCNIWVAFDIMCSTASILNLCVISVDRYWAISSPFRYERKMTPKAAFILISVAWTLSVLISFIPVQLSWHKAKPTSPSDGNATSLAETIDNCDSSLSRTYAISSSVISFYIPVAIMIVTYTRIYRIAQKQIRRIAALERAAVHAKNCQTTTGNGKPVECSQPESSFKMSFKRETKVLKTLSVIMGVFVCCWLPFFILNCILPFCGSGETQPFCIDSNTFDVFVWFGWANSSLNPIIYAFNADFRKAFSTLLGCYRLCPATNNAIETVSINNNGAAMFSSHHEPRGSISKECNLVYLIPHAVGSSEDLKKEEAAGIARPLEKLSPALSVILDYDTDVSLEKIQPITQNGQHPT
Experiment: Antagonist of Human D 1 Dopamine Receptor: qHTS; further: on the % scale 0 is the no-effect control and ±100 the full control effect
Details: HEK293 TREx D1 cells, calcium flux, dopamine EC80; at 10 µM; stronger effect = lower value
Screen size: about 360,000 compounds; about 11,000 (3.1%) were called active. The sample holds actives, similar compounds and a random draw of the others, so the mix is not that of the screen.
// return numeric value only (unit: %, not printed)

Please review the entries below; each comes with its answer.
[[record]]
smiles_str = "Cc1ccccc1NC(=O)Cn1cc(C(=O)c2cccs2)c2ccccc21"
experimental_result = -14.9

[[record]]
smiles_str = "COc1ccc(C2=NC3(CCCCC3)N(CC(=O)Nc3ccc(C(C)C)cc3)C2=O)cc1"
experimental_result = -5.42


Here is another compound to look at.
**Query** Let me know recorded activity change, negative = inhibition for `COc1ccc2oc(=O)c(-c3cn4c(n3)sc3cc(OC)ccc34)cc2c1` , thanks.
**Result** 2.94

* * *

# Lookup of reported activity change, negative = inhibition keyed by entry
Target: D(1A) dopamine receptor (Homo sapiens) (UniProt P21728)
Experiment: Antagonist of Human D 1 Dopamine Receptor: qHTS; further: on the % scale 0 is the no-effect control and ±100 the full control effect
Settings: HEK293 TREx D1 cells, calcium flux, dopamine EC80; at 10 µM; stronger effect = lower value
Out of some 360,000 compounds screened, about 11,000 (3.1%) were called active. What follows is part of a selection rich in actives, with near analogues and random picks from the rest.
Dear colleague, please return just the value in %, with no unit written.

[[record]]
compound = "Cc1ccccc1CN1CCC(CNC(=O)c2c(C)oc3ncnc(N4CCCCC4)c23)CC1"
endpoint_unit = "%"
experimental_result = -6.32


**Query** For Oc1ccc(Cl)cc1C1C=C(c2ccc3c(c2)OCO3)NC(c2c(F)cccc2Cl)N1 (stereo unspecified) , write its activity change, negative = inhibition.
**Result** -6.98

**Query** Please give the documented activity change, negative = inhibition of `COc1cc(C(=S)N2CCOCC2)cc(OC)c1OC(=O)c1cc([N+](=O)[O-])cc([N+](=O)[O-])c1`
**Result** -2.9

**Query** Report measured activity change, negative = inhibition; entry is Cc1ccc(C)c(N2CCN(C(=O)C3CCC(CNS(=O)(=O)c4cccs4)CC3)CC2)c1 (stereo unspecified)
**Result** 16.1

**Query** Dear colleague, please send me the reported activity change, negative = inhibition for `C=C(C)CNc1cc(S(=O)(=O)N2CCOCC2)ccc1Oc1ccccc1` when you can.
**Result** -20.5

**Query** Find the measured activity change, negative = inhibition of `COc1ccc(Nc2ncc(C(=O)Nc3cc(C)ccc3OC)c3ccccc23)cc1` and report it.
**Result** -5.45

**Query** Determine from records and report activity change, negative = inhibition for `COc1ccccc1NC(=O)c1oc2ccccc2c1NC(=O)COc1ccccc1OC`
**Result** -10.7

**Query** Recall and state the measured activity change, negative = inhibition for COc1ccccc1C(=O)NCCC(=O)NC(C)CCc1ccccc1 (stereo unspecified) .
**Result** -3.06

**Query** Please report the measured activity change, negative = inhibition for `COc1cc(NC(=O)C2=CC(c3ccc(C)cc3)=NS(=O)(=O)N2C)cc(OC)c1OC`
**Result** -12.9

**Query** Give the measured activity change, negative = inhibition for O=C(O)C1CCCN1S(=O)(=O)c1ccc2c(c1)CCC2 (stereo unspecified)
**Result** -38.4

**Query** Identify measured activity change, negative = inhibition corresponding to `CCOc1ccc(C(=O)NC(=S)Nc2ccc(NC(=O)C(C)C)cc2)cc1[N+](=O)[O-]`
**Result** -38.8

**Query** Give recorded activity change, negative = inhibition. `Cc1nc2c(-c3ccc(F)cc3)c(C)nn2c(C)c1CCC(=O)NCc1ccco1`
**Result** -61.2

**Query** Specify activity change, negative = inhibition for `CCC(=O)N1CCc2cc(Br)cc(S(=O)(=O)NCc3ccc(Cl)cc3)c21` and stop.
**Result** 4.98

**Query** Report activity change, negative = inhibition for `Cc1ccc2ccc3c(c2n1)NS(=O)(=O)c1ccccc1-3`
**Result** 8.65

**Query** Please look at this compound and report its activity change, negative = inhibition: `Fc1ccccc1CNC(=S)Nc1ccc(Cl)cc1`
**Result** -38.1

**Query** Find the measured activity change, negative = inhibition of `Cc1ccc(Nc2c(-c3ccc(C)cc3)nc3cnccn23)cc1` and report it.
**Result** 12.3
